study-target: Cytochrome P450 2C9 (Homo sapiens)
protocol-description: Cytochrome P450 family 2 subfamily C member 9 (CYP2C9) small molecule antagonists: luciferase biochemical (cell-free) qHTS assay (AID 1645842); note: nearly all actives have a fitted effect of over 55% in size
experimental-setup: P450-Glo CYP2C9 enzyme assay, luciferin luminescence; series mostly up to 57.4 µM
Records with an inconclusive call do not appear. Active and inactive are the calls of the source. Calls come from the whole dose curve; as a rule, active = well fitted inhibition curve with a large enough effect in the repeat runs; inconclusive = weak or mixed curves; inactive = no such curve, though single readings can be large or run the other way.
Hi! Could you answer with just one of these? 1 for active, -1 for inactive

These solved cases illustrate the format of a correct answer.
# compound, assigned-class
data = [
    ("Cc1cc(O)c2c(O)c3c(O)cccc3cc2c1", 1),
    ("CN1CCC(Nc2ncc3ncnc(Nc4ccc(F)c(Cl)c4)c3n2)CC1", -1),
    ("Oc1ccccc1-c1nnco1", -1),
    ("CCC[C@H](N[C@@H](C)C(=O)N1[C@H](C(=O)O)C[C@@H]2CCCC[C@@H]21)C(=O)OCC", -1),
    ("COCCOCC(OC)OC", -1),
    ("CCCC(=O)OCOC(=O)C1=C(C)NC(C)=C(C(=O)OC)C1c1cccc(Cl)c1Cl (stereo not drawn)", 1),
    ("CCn1ccc(NS(=O)(=O)c2ccc(N)cc2)nc1=O", -1),
    ("CCCCC(CC)COC(=O)c1ccccc1C(=O)O (stereo not drawn)", 1),
    ("COc1cc(OC)nc(O[C@H](C(=O)O)C(OC)(c2ccccc2)c2ccccc2)n1", -1),
    ("O=c1[nH]c2ccccc2c(=O)n1CCCl", -1),
]

Incoming: Query: recorded result category for "OC1(c2ccccc2)CCNCC1" in this test
Outgoing: -1
